Experiment: Plasma concentration in Plasmodium chabaudi ASS infected NIH mouse at 100 mg/kg, po qd measured 6 hrs after post last dose on day 3
Assay type: ADME, organism-based
Design: dose 100 mg/kg, route oral
Provide the reported concentration at 6 h of each item.
Expressed in ng/mL, but write only the number.

### Prompt # query: concentration at 6 h of entry "COc1ccc(C2(c3ccc(OC)cc3)NC(=N)N(CC3CCOCC3)C2=O)cc1"
### Response 3030

### Prompt Given the compound "COc1ccc(C2(c3ccc(OC)cc3)NC(=N)N(CC3CCCCC3)C2=O)cc1" , what is its reported concentration at 6 h?
### Response 2190

* * *

Assay: Plasma concentration in Plasmodium chabaudi ASS infected NIH mouse at 100 mg/kg, po qd measured 1 hr after post last dose on day 3
Assay type: ADME, organism-based
Design: dose 100 mg/kg, route oral
assayReadout: concentration at 1 h
Please make sure the unit comes right after the number.

### Prompt What concentration at 1 h value was documented for this molecule, "COc1ccc(C2(c3ccc(OC)cc3)NC(=N)N(CC3CCOCC3)C2=O)cc1" ?
### Response 10400 ng/mL

### Prompt Which concentration at 1 h value is on record for "COc1ccc(C2(c3ccc(OC)cc3)NC(=N)N(CC3CCCCC3)C2=O)cc1" ?
### Response 2520 ng/mL

* * *

Assay: Plasma concentration in Plasmodium chabaudi ASS infected NIH mouse at 110 mg/kg, po qd measured 30 mins after post last dose on day 3
Assay type: ADME, organism-based
Design: dose 110 mg/kg, route oral
assayReadout: concentration at 0.5 h (ng/mL)
A number alone suffices; assume ng/mL.

### Prompt If you can, please state the reported concentration at 0.5 h value of "COc1ccc(C2(c3ccc(OC)cc3)NC(=N)N(C3CCOCC3)C2=O)cc1" .
### Response 4140

* * *

Assay: Plasma concentration in Plasmodium chabaudi ASS infected NIH mouse at 100 mg/kg, po qd measured 24 hrs after post last dose on day 3
Assay type: ADME, organism-based
Design: dose 100 mg/kg, route oral
assayReadout: concentration at 24 h (ng/mL)
Just the number please, in ng/mL, no unit attached.

### Prompt Find the recorded concentration at 24 h belonging to "COc1ccc(C2(c3ccc(OC)cc3)NC(=N)N(CC3CCCCC3)C2=O)cc1" and report it.
### Response 7

### Prompt Which measured concentration at 24 h value corresponds to "COc1ccc(C2(c3ccc(OC)cc3)NC(=N)N(CC3CCOCC3)C2=O)cc1" ?
### Response 123

* * *

Experiment: Plasma concentration in Plasmodium chabaudi ASS infected NIH mouse at 110 mg/kg, po qd measured 24 hrs after post last dose on day 3
Format: ADME, organism-based
Set-up: dose 110 mg/kg, route oral
assayReadout: concentration at 24 h (ng/mL)
# number only, unit ng/mL dropped from output

### Prompt Entry under review: "COc1ccc(C2(c3ccc(OC)cc3)NC(=N)N(C3CCOCC3)C2=O)cc1" . Reported concentration at 24 h?
### Response 29
